From: ChEMBL document CHEMBL2390927

Would you mind telling me the reported MIC of each entry?
Tested on: Cyberlindnera jadinii
Assay: Antifungal activity against Candida utilis after 24 hrs by two-fold serial dilution method
Type: functional
Conditions: Williopsis jadinii
Hi! Could you send only the number? It should be in µg/mL, unit omitted.

## Input I am curious: what MIC value has been reported for `Cc1ccc(N(Cc2nc3ccccc3[nH]2)Cc2ccc(Cl)cc2Cl)cc1` ?
## Output 64

## Input I am curious: what MIC value has been reported for `CCCCCCCCN(Cc1nc2ccccc2[nH]1)c1ccc(C)cc1.Cl.Cl` ?
## Output 64

## Input I am curious: what MIC value has been reported for `Cc1ccc(N(Cc2nc3ccccc3[nH]2)Cc2ccccc2Cl)cc1` ?
## Output 32

## Input I am curious: what MIC value has been reported for `FC(F)(F)c1cc(NCc2nc3ccccc3[nH]2)cc(C(F)(F)F)c1` ?
## Output 8

## Input I am curious: what MIC value has been reported for `FC(F)(F)c1cccc(N(Cc2nc3ccccc3[nH]2)Cc2ccc(Cl)cc2Cl)c1` ?
## Output 32

## Input I am curious: what MIC value has been reported for `CCCCCCN(Cc1nc2ccccc2[nH]1)c1ccc(C)cc1` ?
## Output 128

## Input I am curious: what MIC value has been reported for `CCCCCCCCCCN(Cc1nc2ccccc2[nH]1)c1ccc(C)cc1` ?
## Output 64

## Input I am curious: what MIC value has been reported for `FC(F)(F)c1cccc(NCc2nc3ccccc3[nH]2)c1` ?
## Output 32

## Input I am curious: what MIC value has been reported for `Cc1ccc(N(Cc2ccc(Cl)c(Cl)c2)Cc2nc3ccccc3[nH]2)cc1` ?
## Output 64

## Input I am curious: what MIC value has been reported for `Fc1ccc(NCc2nc3ccccc3[nH]2)c(F)c1` ?
## Output 32

## Input I am curious: what MIC value has been reported for `Cc1ccc(N(Cc2cccc(Cl)c2)Cc2nc3ccccc3[nH]2)cc1` ?
## Output 32

## Input I am curious: what MIC value has been reported for `Fc1ccccc1N(CCCCn1c2ccccc2c2ccccc21)Cc1nc2ccccc2[nH]1` ?
## Output 32

## Input I am curious: what MIC value has been reported for `Fc1ccccc1N(Cc1ccc(Cl)c(Cl)c1)Cc1nc2ccccc2[nH]1` ?
## Output 32

## Input I am curious: what MIC value has been reported for `CCCN(Cc1nc2ccccc2[nH]1)c1ccc(C)cc1` ?
## Output 64

## Input I am curious: what MIC value has been reported for `Cc1ccc(N(Cc2ccc(Cl)cc2)Cc2nc3ccccc3[nH]2)cc1` ?
## Output 64

## Input I am curious: what MIC value has been reported for `OC(Cn1cncn1)(Cn1cncn1)c1ccc(F)cc1F` ?
## Output 8

## Input I am curious: what MIC value has been reported for `FC(F)(F)c1cc(N(Cc2nc3ccccc3[nH]2)Cc2ccc(Cl)cc2Cl)cc(C(F)(F)F)c1` ?
## Output 64

## Input I am curious: what MIC value has been reported for `Ic1ccc(NCc2nc3ccccc3[nH]2)cc1` ?
## Output 64

## Input I am curious: what MIC value has been reported for `CC(=O)c1cc2ccc(OCc3ccc(CN(Cc4nc5ccccc5[nH]4)c4ccc(C)cc4)cc3)cc2oc1=O` ?
## Output 64

## Input I am curious: what MIC value has been reported for `Fc1ccc(N(Cc2nc3ccccc3[nH]2)Cc2ccc(Cl)cc2Cl)cc1` ?
## Output 32

## Input I am curious: what MIC value has been reported for `Cc1ccc(NCc2nc3ccccc3[nH]2)cc1` ?
## Output 32

## Input I am curious: what MIC value has been reported for `Fc1ccc(N(Cc2nc3ccccc3[nH]2)Cc2ccc(Cl)cc2Cl)c(F)c1` ?
## Output 32

## Input I am curious: what MIC value has been reported for `Cc1ccc(N(Cc2nc3ccccc3[nH]2)Cc2ccc(F)cc2F)cc1` ?
## Output 32

## Input I am curious: what MIC value has been reported for `CCCCCCCCN(Cc1nc2ccccc2[nH]1)c1ccc(C)cc1` ?
## Output 32

## Input I am curious: what MIC value has been reported for `Cc1cc(=O)oc2cc(OCCCCCCN(Cc3nc4ccccc4[nH]3)c3ccc(F)cc3)ccc12` ?
## Output 16

## Input I am curious: what MIC value has been reported for `Fc1ccccc1NCc1nc2ccccc2[nH]1` ?
## Output 64

## Input I am curious: what MIC value has been reported for `Fc1ccc(CN(Cc2nc3ccccc3[nH]2)c2ccc(Cl)cc2Cl)c(F)c1` ?
## Output 64

## Input I am curious: what MIC value has been reported for `Fc1ccc(NCc2nc3ccccc3[nH]2)cc1` ?
## Output 32

## Input I am curious: what MIC value has been reported for `CCCCCCCCCCCCCCCCCCN(Cc1nc2ccccc2[nH]1)c1ccc(C)cc1` ?
## Output 32

## Input I am curious: what MIC value has been reported for `Fc1ccc(CN(Cc2nc3ccccc3[nH]2)c2cc(C(F)(F)F)cc(C(F)(F)F)c2)c(F)c1` ?
## Output 32

## Input I am curious: what MIC value has been reported for `Clc1ccc(NCc2nc3ccccc3[nH]2)c(Cl)c1` ?
## Output 32

## Input I am curious: what MIC value has been reported for `CCCCCCCCCCCCN(Cc1nc2ccccc2[nH]1)c1ccc(C)cc1` ?
## Output 32

## Input I am curious: what MIC value has been reported for `Cc1ccc(N(Cc2ccc([N+](=O)[O-])cc2)Cc2nc3ccccc3[nH]2)cc1` ?
## Output 64

## Input I am curious: what MIC value has been reported for `Clc1ccc(NCc2nc3ccccc3[nH]2)cc1` ?
## Output 32

## Input I am curious: what MIC value has been reported for `Cl.Cl.Fc1ccc(CN(Cc2nc3ccccc3[nH]2)c2cc(C(F)(F)F)cc(C(F)(F)F)c2)c(F)c1` ?
## Output 16
